All values here come from patent US20090047335A1.

test: in vitro; type: in vitro ADME, bovine; details: serum
MEASUREMENT NAME: metabolised at 72 h, 100 μM (%)
Answer in %, number only, no unit symbol.

*Q* Record request: metabolised at 72 h, 100 μM value, item CC(C)C[C@H](NC(=O)[C@H](CO)NC(=O)[C@@H](NC(=O)[C@H](C)N)[C@@H](C)O)C(=O)N1CCC[C@H]1C(=O)N1CCC[C@H]1C(=O)N[C@@H](Cc1c[nH]cn1)C(=O)N[C@@H](CO)C(=O)N[C@@H](CO)C(=O)N[C@@H](CCC(N)=O)C(=O)N[C@@H](CO)C(=O)N1CCC[C@H]1C(=O)O
*A* 85
